# credit: patent US20210330611A1

- Tested on: fibrin- and LPS-induced microglia activation
- Assay Summary: cells
- Format: cell-based, rat
- Stated Conditions: HTS of 1907 compounds, quadrant by fibrin and LPS inhibition
Structures can show the parent of a compound that is named as a salt.
Measure: Quadrant (FIG. 5b)

Example entries and their recorded answers appear below.
Compound: CC[C@H]1OC(=O)[C@H](C)C(=O)[C@H](C)[C@@H](O[C@@H]2O[C@H](C)C[C@H](N(C)C)[C@H]2O)[C@](C)(OC)C[C@@H](C)C(=O)[C@H](C)[C@H]2N(CCCCn3cnc(-c4cccnc4)c3)C(=O)O[C@]12C
Quadrant (FIG. 5b): Q4
//
Compound: CCCOc1ccccc1-c1nc2nn[nH]c2c(=O)[nH]1
Quadrant (FIG. 5b): Q4
//
Compound: O=C1[O][Pt]2([NH][C@@H]3CCCC[C@H]3[NH]2)[O]C1=O [Oxaliplatin, reference compound]
Quadrant (FIG. 5b): Q3
//
Compound: CN1CCN2c3ncccc3Cc3ccccc3C2C1 (centres unmarked) [Mirtazapine, reference compound]
Quadrant (FIG. 5b): Q3
//
Compound: Cc1cc(-n2c(=O)[nH]c(=O)n(C)c2=O)ccc1Oc1ccc(SC(F)(F)F)cc1 [Toltrazuril, reference compound]
Quadrant (FIG. 5b): Q2
//
Compound: CCCCC(=O)O[C@]1(C(=O)CO)[C@@H](C)C[C@H]2[C@@H]3CCC4=CC(=O)C=C[C@]4(C)[C@@]3(F)[C@@H](O)C[C@@]21C [Betamethasone valerate, reference compound]
Quadrant (FIG. 5b): Q2
//
Compound: NC(N)=O
Quadrant (FIG. 5b): Q4
//
Compound: CC(=O)[C@@]1(O)CC[C@H]2[C@@H]3C=C(Cl)C4=CC(=O)[C@@H]5C[C@@H]5[C@]4(C)[C@H]3CC[C@@]21C [Cyproterone, reference compound]
Quadrant (FIG. 5b): Q3
//
Compound: O=C(O)C1CSCN1 (centres unmarked)
Quadrant (FIG. 5b): Q4
//
Compound: COc1ccccc1N1CCN(CCCNc2cc(=O)n(C)c(=O)n2C)CC1 [Urapidil Hydrochloride]
Quadrant (FIG. 5b): Q4

Prompt: Entry under review: `Cc1cc2cc3c(C)cc(=O)oc3c(C)c2o1` . Reported Quadrant (FIG. 5b)?
Completion: Q4

Prompt: Cc1ccc(C(=O)C(C)CN2CCCCC2)cc1 (centres unmarked) ?
Completion: Q4

Prompt: CC1(C)O[C@@H]2[C@@H](CO[C@@]3(COS(N)(=O)=O)OC(C)(C)O[C@@H]23)O1 [Topiramate] ?
Completion: Q4

Prompt: C=C1C[C@H]2[C@@H]3C=C(C)C4=CC(=O)CC[C@]4(C)[C@H]3CC[C@]2(C)[C@@]1(OC(C)=O)C(C)=O [Melengestrol acetate, reference compound] ?
Completion: Q2

Prompt: CC[C@@H](C(=O)[C@@H](C)[C@@H](O)[C@H](C)[C@@H]1O[C@@H]([C@@H](CC)C(=O)O)CC[C@@H]1C)[C@H]1O[C@]2(C=C[C@@H](O)[C@]3(CC[C@@](C)([C@H]4CC[C@](O)(CC)[C@H](C)O4)O3)O2)[C@H](C)C[C@@H]1C [Salinomycin, sodium, reference compound] ?
Completion: Q2

Prompt: Cn1nnc2c(C(N)=O)ncn2c1=O [Temozolomide] ?
Completion: Q4

Prompt: O=C1C=C2C=C[C@@H]3C[C@@]2(O1)[C@H]1CCCCN31 [Securinine, reference compound] ?
Completion: Q2

Prompt: `O=C1C(O)=C(O)C(=O)C(O)=C1O` ?
Completion: Q4

Prompt: `Clc1ccc(Nc2nnc(Cc3ccncc3)c3ccccc23)cc1` ?
Completion: Q4

Prompt: C=C(CC)C(=O)c1ccc(OCC(=O)O)c(Cl)c1Cl [Ethacrynic acid, reference compound] ?
Completion: Q3

Prompt: CCN(CC)C(=O)C1(c2ccccc2)CC1CN (centres unmarked) [Milnacipran hydrochloride, reference compound] ?
Completion: Q3

Prompt: CC(=O)O[C@]1(C(C)=O)CC[C@H]2[C@@H]3C[C@H](C)C4=CC(=O)CC[C@]4(C)[C@H]3CC[C@@]21C [Medroxyprogesterone acetate, reference compound] ?
Completion: Q2

Prompt: Cc1ccc(S(=O)(=O)NC(=O)NN2CCCCCC2)cc1 [Tolazamide, reference compound] ?
Completion: Q3
